# test target: T1, human CD64 (recombinant) (human, UniProt P12314 16-288)
# T1 chain: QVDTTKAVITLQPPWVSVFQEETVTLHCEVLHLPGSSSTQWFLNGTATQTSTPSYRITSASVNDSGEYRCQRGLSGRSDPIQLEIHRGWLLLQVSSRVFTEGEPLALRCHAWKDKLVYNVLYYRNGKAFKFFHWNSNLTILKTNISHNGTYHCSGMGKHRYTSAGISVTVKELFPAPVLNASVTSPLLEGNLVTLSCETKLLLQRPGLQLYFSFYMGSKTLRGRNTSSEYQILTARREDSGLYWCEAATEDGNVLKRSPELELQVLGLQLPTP
# protocol description: BLI; 25 nM CD64
measured quantity: Kd (nM)

[[record]]
binder = "XVNSCLLLPNLLGCGDDY (not fully specified; X1 is K, Ac-K(azido), or absent (azide clicked to DBCO-peg4-biotin); disulfide bond between C5 and C14; C-terminal amidation present or absent) [CP-33(C-term \"Y\" insertion mutant)-linker-biotin conjugate]"
measured_quantity = "Kd"
value_measured = 2.6

